assay: Cmax in New Zealand rabbit at 20 mg/kg, sc administered every 6 hrs for 4 days measured after 1 hr post first dose by RP-HPLC/MS/MS; type: ADME, organism-based, Oryctolagus cuniculus; parameters: dose 20 mg/kg, route subcutaneous; conditions: in vivo
property.label: Cmax (ng/mL)

>>> reading("Nc1nc(/C(=N/O)C(=O)N[C@@H]2C(=O)N3C(C(=O)O)=C(/C=C4\\CCN([C@@H]5CCNC5)C4=O)CS[C@H]23)ns1")
23800

###

test: Drug level in tibial matrix of New Zealand rabbit at 40 mg/kg, sc administered every 6 hrs for 1 week measured after 3 hrs post last dose; details: read-out: Drug uptake
property.label: concentration at 3 h

>>> reading("Nc1nc(/C(=N/O)C(=O)N[C@@H]2C(=O)N3C(C(=O)O)=C(/C=C4\\CCN([C@@H]5CCNC5)C4=O)CS[C@H]23)ns1 [CEFTOBIPROLE]")
"300 ng/g"

###

experiment: Cmax in New Zealand rabbit osteomyelitis model at 40 mg/kg, sc administered every 6 hrs for 4 days; format: ADME, organism-based, Oryctolagus cuniculus; design: dose 40 mg/kg, route subcutaneous; details: in vivo
Reported Cmax values for the following compounds.
property.label: Cmax

>>> reading("CC(=O)NC[C@H]1CN(c2ccc(N3CCOCC3)c(F)c2)C(=O)O1")
"27200 ng/mL"
>>> reading("CN[C@H](CC(C)C)C(=O)N[C@H]1C(=O)N[C@@H](CC(N)=O)C(=O)N[C@H]2C(=O)N[C@H]3C(=O)N[C@H](C(=O)N[C@H](C(=O)O)c4cc(O)cc(O)c4-c4cc3ccc4O)[C@H](O)c3ccc(c(Cl)c3)Oc3cc2cc(c3O[C@@H]2O[C@H](CO)[C@@H](O)[C@H](O)[C@H]2O[C@H]2C[C@](C)(N)[C@H](O)[C@H](C)O2)Oc2ccc(cc2Cl)[C@H]1O")
"6400 ng/mL"
>>> reading("Nc1nc(/C(=N/O)C(=O)N[C@@H]2C(=O)N3C(C(=O)O)=C(/C=C4\\CCN([C@@H]5CCNC5)C4=O)CS[C@H]23)ns1")
"76800 ng/mL"

###

experiment: AUC in methicillin-resistant Staphylococcus aureus-infected New Zealand rabbit osteomyelitis model at 60 mg/kg, po after 24 hrs; format: ADME, organism-based, Oryctolagus cuniculus; set-up: time < 24 hr, dose 60 mg/kg, route oral; details: in vivo
property.label: AUC at 24 h (µg·h/mL)

>>> reading("CC(=O)NC[C@H]1CN(c2ccc(N3CCOCC3)c(F)c2)C(=O)O1 [LINEZOLID]")
334

###

experiment: Drug level in tibial marrow of New Zealand rabbit osteomyelitis model at 40 mg/kg, sc administered every 6 hrs for 1 week measured after 3 hrs post last dose; conditions: read-out: Drug uptake
property.label: concentration at 3 h (ng/g)

>>> reading("Nc1nc(/C(=N/O)C(=O)N[C@@H]2C(=O)N3C(C(=O)O)=C(/C=C4\\CCN([C@@H]5CCNC5)C4=O)CS[C@H]23)ns1 [CEFTOBIPROLE]")
12800

###

Reported AUC values for the following compounds.
experiment: AUC in New Zealand rabbit osteomyelitis model at 40 mg/kg, sc administered every 6 hrs for 4 days; format: ADME, organism-based, Oryctolagus cuniculus; parameters: dose 40 mg/kg, route subcutaneous; settings: in vivo
property.label: AUC (µg·h/mL)

>>> reading("CN[C@H](CC(C)C)C(=O)N[C@H]1C(=O)N[C@@H](CC(N)=O)C(=O)N[C@H]2C(=O)N[C@H]3C(=O)N[C@H](C(=O)N[C@H](C(=O)O)c4cc(O)cc(O)c4-c4cc3ccc4O)[C@H](O)c3ccc(c(Cl)c3)Oc3cc2cc(c3O[C@@H]2O[C@H](CO)[C@@H](O)[C@H](O)[C@H]2O[C@H]2C[C@](C)(N)[C@H](O)[C@H](C)O2)Oc2ccc(cc2Cl)[C@H]1O")
58
>>> reading("CC(=O)NC[C@H]1CN(c2ccc(N3CCOCC3)c(F)c2)C(=O)O1")
173

Where do these numbers come from? They come from ChEMBL document CHEMBL1255345.
